# system: T1, MvaTctd WT (Pseudomonas aeruginosa PAO1, UniProt Q9HW86 77-124)
# T1 chain: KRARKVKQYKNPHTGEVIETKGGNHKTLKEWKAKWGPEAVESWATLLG
# experimental-protocol: ITC; 283 K; EMSA: 8 mM Tris pH 8.0, 15 mM HEPES pH 7.9, 40 mM NaCl, 40 mM KCl, 1.4 mM EDTA, 0.5 mM DTT, 9.95% glycerol, room temp; NMR: 50 mM Na phosphate, 50 mM NaCl, pH 6.0, 298 K; ITC: 283 K, 0.15 mM DNA in cell, buffer not stated (protein purified in NMR buffer)
# condition-parameters: protein: recombinant; tags: C-terminal His6; blunt, self-complementary
// reported Kd for each item listed
assay-readout: Kd

binder | observed-result
GC-rich d(CGCGCGCG)2 (dsDNA) DNA 1: CGCGCGCG DNA 2: CGCGCGCG | ~360 µM
3AT (dsDNA) DNA 1: CGCATATATGCG DNA 2: CGCATATATGCG | ~10.7 µM
